Values from PubChem BioAssay (Tox21)

# tgt: Acetylcholinesterase (Homo sapiens) (UniProt P22303)
# Sequence (P22303 whole entry, looked up): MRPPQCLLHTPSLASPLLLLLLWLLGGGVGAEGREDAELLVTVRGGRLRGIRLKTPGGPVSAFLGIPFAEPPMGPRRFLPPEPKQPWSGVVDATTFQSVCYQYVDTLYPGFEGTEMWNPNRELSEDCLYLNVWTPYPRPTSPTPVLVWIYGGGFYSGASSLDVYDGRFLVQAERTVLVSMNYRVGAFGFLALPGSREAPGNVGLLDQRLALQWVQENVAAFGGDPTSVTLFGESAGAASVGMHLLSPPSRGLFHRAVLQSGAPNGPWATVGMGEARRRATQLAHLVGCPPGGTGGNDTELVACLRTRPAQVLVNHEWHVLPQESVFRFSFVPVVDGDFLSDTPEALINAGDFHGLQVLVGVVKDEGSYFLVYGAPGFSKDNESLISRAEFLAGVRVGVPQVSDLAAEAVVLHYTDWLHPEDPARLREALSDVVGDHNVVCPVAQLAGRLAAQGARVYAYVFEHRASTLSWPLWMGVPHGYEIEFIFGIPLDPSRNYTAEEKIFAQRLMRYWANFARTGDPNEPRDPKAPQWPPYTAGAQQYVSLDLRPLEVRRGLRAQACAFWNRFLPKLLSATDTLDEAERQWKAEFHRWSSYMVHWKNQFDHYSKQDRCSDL
# experiment-description: Acetylcholinesterase (AChE) small molecule antagonists: fluorescence cell-based qHTS assay (AID 1347398); further: nearly all actives have a fitted effect of over 50% in size
# measurement-setup: SH-SY5Y cells; AChE activity; series mostly up to 115 µM
Results filed as inconclusive are left out. The source made the active and inactive calls. The call rests on the fitted dose curve.
Could you please pick one outcome from this set? active, inactive

Ask: Per the records of this test, what outcome belongs to `ClC(Cl)(Br)Br` ?
Reply: inactive

Ask: I would be grateful if you could indicate the recorded call for `CCOC(=O)c1ccccc1` .
Reply: inactive

Ask: Please share the test call associated with `O=[N+]([O-])c1ccc(F)c(Cl)c1` .
Reply: inactive

Ask: Per the records of this test, what outcome belongs to `O=C(OCCN1CCOCC1)c1cccnc1Nc1cccc(C(F)(F)F)c1` ?
Reply: inactive

Ask: Field: outcome | Entry: `COC(=O)C1=C(C)NC(C)=C(C(=O)O[C@@H]2CCCN(Cc3ccccc3)C2)[C@@H]1c1cccc([N+](=O)[O-])c1`
Reply: inactive

* * *

# tgt: Acetylcholinesterase (Homo sapiens) (UniProt P22303)
# experiment-description: Acetylcholinesterase (AChE) small molecule antagonists: colormetric cell-based qHTS assay (AID 1347395); further: nearly all actives have a fitted effect of over 30% in size
# measurement-setup: SH-SY5Y cells AChE activity, colorimetric (Ellman); series mostly up to 115 µM
Records with an inconclusive call do not appear. Active and inactive are the calls of the source. Calls come from the whole dose curve.
Your response should consist of one outcome taken from active, inactive

Example cases with answers are listed next.
C=CC(=O)OCCn1c(=O)n(CCOC(=O)C=C)c(=O)n(CCOC(=O)C=C)c1=O = inactive
CC(NC(CCc1ccccc1)C(=O)O)C(=O)N1C(=O)N(C)CC1C(=O)O (configuration not stated) = inactive
COc1cc(OC)c2ccc(=O)oc2c1 = inactive
COc1c(C)c2c(c(O)c1C/C=C(\C)CCC(=O)O)C(=O)OC2 = inactive
C(/C=C/C=C/Nc1ccccc1)=Nc1ccccc1 = active

Ask: Test call for this molecule, please: CCC(C)c1ccccc1 (configuration not stated)
Reply: inactive

Ask: Which result was noted for this molecule in the test: `Nc1ccc(F)cc1F`
Reply: inactive

* * *

# experiment-description: qHTS assay to test for compound auto fluorescence at 535 nm (green) in HepG2 cells (AID 720675)
# measurement-setup: green autofluorescence 485/535 nm, 1 h; series mostly up to 46 µM
Calls of active or inactive are those of the source. The call rests on the fitted dose curve; in most records, active means well fitted curve in the direction sought with a large enough effect in the repeat runs; inconclusive means weak or mixed curves; inactive means flat fitted curve, though single readings scatter.
measurement-name: outcome

Some solved cases for reference:
Cc1ccc2c(c1)[C@]13CCCC[C@@H]1[C@H](C2)N(C)CC3 = inactive
CC(=O)O[C@H]1C[C@H](O[C@H]2[C@@H](O)C[C@H](O[C@H]3[C@@H](O)C[C@H](OC4CC[C@@]5(C)C(CC[C@@H]6[C@@H]5CC[C@]5(C)[C@@H](C7=CC(=O)OC7)[C@@H](O)C[C@]65O)C4)O[C@@H]3C)O[C@@H]2C)O[C@H](C)[C@H]1O[C@@H]1O[C@H](CO)[C@@H](O)[C@H](O)[C@H]1O (stereo partly specified) = inactive
CCC(=O)O[C@H]1[C@@H](N2CCCCC2)C[C@H]2[C@@H]3CC[C@H]4C[C@H](OC(C)=O)[C@@H](N5CCCCC5)C[C@]4(C)[C@H]3CC[C@@]21C = inactive
CN1C2CCC1CC(OC(c1ccccc1)c1ccc(Cl)cc1)C2 (stereo unspecified) = inactive
Clc1ccc([C@@H]2C[C@H]3CC[C@@H]2N3)cn1 = inactive

Next, consider the following molecule.
Noted for `CC[C@@H](O)C(C[C@@H](C)N(C)C)(c1ccccc1)c1ccccc1` : its outcome reads inactive
